EXPERIMENT: inducers of Vibrio cholerae quorum light production without autoinducers, primary screen, BH1578 luxS cqsA deficient, single point (AID 588436)
CONDITION SUMMARY: V. cholerae BH1578 lux reporter, luminescence, 6 h, at 18.7 µM
Screen size: about 350,000 compounds; about 550 (0.16%) were called active. Cut-off read from the data, not from the text of the source: active = activation mostly above about 9.7% (no sharp cut-off); inconclusive = no clear call, values can overlap the other calls; inactive = mostly below about 3.7%. This excerpt belongs to a sample that is enriched for actives.
Classes to choose from: active, inactive

Example results:
GET /call?item= COC(=O)C1=C(C)N=C2SC(C)C(=O)N2C1/C=C/c1ccccc1 (centres undefined) returns the recorded outcome of this test.
inactive

GET /call?item= COc1ccc(C)cc1NC(=O)NCCCCc1ccccc1 returns the recorded outcome of this test.
inactive

GET /call?item= Cc1cccc(N2CCN(C(C)C(=O)N3CCc4ccccc43)CC2)c1C (centres undefined) returns the recorded outcome of this test.
inactive

GET /call?item= COCCNc1ncnc2c1ncn2[C@H]1CN(CCN2CCOCC2)C[C@@H](CO)O1 returns the recorded outcome of this test.
inactive

GET /call?item= CC(CN1CCCCC1)c1ccccc1 (centres undefined) returns the recorded outcome of this test.
inactive

GET /call?item= COc1ccccc1C(=O)NC(CCSC)C(=O)NNC(=O)c1csc(N2CCOCC2)n1 (centres undefined) returns the recorded outcome of this test.
inactive

***
GET /call?item= COc1cc(OC)cc(C(=O)Nc2ccc(-c3nc4ccccc4o3)c(O)c2)c1 returns the recorded outcome of this test.
inactive

GET /call?item= O=C(CN1CCCCCC1)Nc1ccc(Br)cc1Br returns the recorded outcome of this test.
inactive

GET /call?item= O=C(Nc1ccc2oc(-c3ccccc3F)nc2c1)c1ccco1 returns the recorded outcome of this test.
inactive

GET /call?item= COC(=O)C1=C(C)NC(=O)NC1/C=C/c1ccccc1 (centres undefined) returns the recorded outcome of this test.
active

GET /call?item= CCn1c2c(c3ccc(OC)cc31)CCCC2=O returns the recorded outcome of this test.
inactive

GET /call?item= CCN(CC(=O)NCC(=O)Nc1cccc(C)c1C)Cc1ccccc1 returns the recorded outcome of this test.
inactive

GET /call?item= O=C(Nc1ccc2oc(-c3ccc4ccccc4c3)nc2c1)c1cccs1 returns the recorded outcome of this test.
active

GET /call?item= COc1ccc(N2CCN(C(=O)c3cn(C)c4ccc(S(=O)(=O)N5CCOCC5)cc4c3=O)CC2)cc1 returns the recorded outcome of this test.
inactive

GET /call?item= COc1ccc(S(=O)(=O)N2CCN(c3cnccn3)CC2)cc1 returns the recorded outcome of this test.
active
